Origin of the recorded values: ChEMBL document CHEMBL3885881

Species on record: Rattus norvegicus
experimental.details: DrugMatrix - Regimen: Daily Repeat
Format: toxicity, organism-based, Sprague-Dawley
Design: regimen Daily Repeat, gender Male, age 6-8 weeks
measurement.conditions: in vivo, po, 1500 mg/kg, 72 h, tissue Blood, route oral GAVAGE, dose level High, time 3 day, vehicle .5 % CMC
Recorded measurements of ABSOLUTE LYMPHOCYTE, one per entry
Your answer should be a number followed by the unit of measure.

[[record]]
molecule = "CCOC(=O)[C@H](CCc1ccccc1)N[C@@H](C)C(=O)N1CCC[C@H]1C(=O)O"
readout_value = "17047.67 CELLS/uL"


// recorded ABSOLUTE LYMPHOCYTE for "CC(C)(Sc1cc(C(C)(C)C)c(O)c(C(C)(C)C)c1)Sc1cc(C(C)(C)C)c(O)c(C(C)(C)C)c1" : 12835.33 CELLS/uL

Quick note, ABSOLUTE LYMPHOCYTE for "C[C@@H](O)[C@H]1C(=O)N2C(C(=O)O)=C(S[C@@H]3CN[C@H](C(=O)N(C)C)C3)[C@H](C)[C@H]12" landed at 12444.67 CELLS/uL

Query Nc1nc2c(c(=O)[nH]1)N(C=O)C(CNc1ccc(C(=O)N[C@@H](CCC(=O)O)C(=O)O)cc1)CN2 (some centres undefined) yields ABSOLUTE LYMPHOCYTE of 14453.33 CELLS/uL

###

Species: Rattus norvegicus
experimental.details: DrugMatrix - Regimen: Daily Repeat
Assay type: toxicity, organism-based, Sprague-Dawley
Parameters: regimen Daily Repeat, gender Male, age 6-8 weeks
measurement.conditions: in vivo, po, 0 mg/kg, 120 h, tissue Blood, route oral GAVAGE, dose level Control, time 5 day, […]
readout: ABSOLUTE BASOPHIL (CELLS/uL)
Record the value in CELLS/uL, omitting the unit from your answer.

Solved entries:
[[record]]
compound = "CC(=O)Nc1nnc(S(N)(=O)=O)s1 [ACETAZOLAMIDE]"
readout = "ABSOLUTE BASOPHIL"
readout_unit = "CELLS/uL"
readout_value = 0

[[record]]
compound = "OCCN1CCN(CCCN2c3ccccc3Sc3ccc(C(F)(F)F)cc32)CC1"
readout = "ABSOLUTE BASOPHIL"
readout_unit = "CELLS/uL"
readout_value = 0


For this compound ( CN(Cc1cnc2nc(N)nc(N)c2n1)c1ccc(C(=O)N[C@@H](CCC(=O)O)C(=O)O)cc1 [METHOTREXATE] ), measured ABSOLUTE BASOPHIL is 0

For "CC[C@H](C)C(=O)O[C@H]1C[C@@H](C)C=C2C=C[C@H](C)[C@H](CC[C@@H]3C[C@@H](O)CC(=O)O3)[C@H]21" the compound record lists ABSOLUTE BASOPHIL as 0

For reference, reported ABSOLUTE BASOPHIL for "COc1ncnc(NS(=O)(=O)c2ccc(N)cc2)c1OC" stands at 0

###

Organism: Rattus norvegicus
experimental.details: DrugMatrix - Regimen: Daily Repeat
Assay type: toxicity, organism-based, Sprague-Dawley
Design: regimen Daily Repeat, gender Male, age 6-8 weeks
measurement.conditions: in vivo, po, 0 mg/kg, 120 h, tissue Blood, route oral GAVAGE, dose level Control, time 5 day, vehicle .5 % CMC
readout: NUCLEATED RED BLOOD CELLS

[[record]]
compound = "COc1ccccc1OCC(O)COC(N)=O (centres undefined) [METHOCARBAMOL]"
readout_value = "0 /100WBC"

[[record]]
compound = "CC(C(=O)O)c1ccc(-c2ccccc2)c(F)c1 (centres undefined) [FLURBIPROFEN]"
readout_value = "0.17 /100WBC"

[[record]]
compound = "CCOC(=O)[C@H](CCc1ccccc1)N[C@@H](C)C(=O)N1Cc2ccccc2C[C@H]1C(=O)O"
readout_value = "0 /100WBC"


The compound identified as C[C@@H](O)[C@H]1C(=O)N2C(C(=O)O)=C(S[C@@H]3CN[C@H](C(=O)N(C)C)C3)[C@H](C)[C@H]12 [MEROPENEM] registered its NUCLEATED RED BLOOD CELLS at 0.17 /100WBC

Form field NUCLEATED RED BLOOD CELLS, entry CCCCC1C(=O)N(c2ccccc2)N(c2ccccc2)C1=O [PHENYLBUTAZONE] : 0 /100WBC

NUCLEATED RED BLOOD CELLS reading for Cc1cnc(C(=O)NCCc2ccc(S(=O)(=O)NC(=O)NC3CCCCC3)cc2)cn1 [GLIPIZIDE] : 0 /100WBC

// NUCLEATED RED BLOOD CELLS value for CC(C)(Sc1cc(C(C)(C)C)c(O)c(C(C)(C)C)c1)Sc1cc(C(C)(C)C)c(O)c(C(C)(C)C)c1 [PROBUCOL] : 0.17 /100WBC

For reference, reported NUCLEATED RED BLOOD CELLS for C[C@@H]1CC[C@H]2[C@@H](C)C(=O)O[C@@H]3O[C@@]4(C)CC[C@@H]1[C@]32OO4 [ARTEMISININ] stands at 0 /100WBC

Notebook: CC(=O)O[C@]1(C(C)=O)CC[C@H]2[C@@H]3C=C(Cl)C4=CC(=O)[C@@H]5C[C@@H]5[C@]4(C)[C@H]3CC[C@@]21C [CYPROTERONE ACETATE] , NUCLEATED RED BLOOD CELLS read as 0 /100WBC
